Biological target: Cytochrome P450 2C19 (Homo sapiens, UniProt P33261)
Sequence (P33261 whole entry): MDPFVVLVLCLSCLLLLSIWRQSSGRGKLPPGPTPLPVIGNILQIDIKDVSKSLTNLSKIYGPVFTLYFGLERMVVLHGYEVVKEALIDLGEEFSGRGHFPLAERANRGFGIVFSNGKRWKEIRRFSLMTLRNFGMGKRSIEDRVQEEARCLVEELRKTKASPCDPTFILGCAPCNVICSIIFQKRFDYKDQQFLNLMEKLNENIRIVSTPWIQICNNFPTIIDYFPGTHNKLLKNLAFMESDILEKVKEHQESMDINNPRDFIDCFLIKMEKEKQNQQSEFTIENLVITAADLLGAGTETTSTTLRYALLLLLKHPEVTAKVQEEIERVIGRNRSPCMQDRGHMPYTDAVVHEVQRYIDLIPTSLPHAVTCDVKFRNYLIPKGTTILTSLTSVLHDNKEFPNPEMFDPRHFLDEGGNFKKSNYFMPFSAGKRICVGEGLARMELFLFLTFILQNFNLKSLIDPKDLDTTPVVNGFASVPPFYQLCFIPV
Test: Inhibition of CYP2C19 in human liver microsomes using S-mephenytoin as substrate
Assay type: ADME, Microsome
PROPERTY_LABEL: pIC50
For clarity, pIC50 is expressed as the negative log10 of concentration in mol/L.

Query: So what's the measured pIC50 for this one? CCn1cc(-c2ccnc3[nH]c(-c4cccc(CN(C)C)c4)cc23)c(-c2ccc(NC(=O)N(C)C)cc2)n1 [GSK-1070916]
Reply: 4.09

---

PROPERTY_LABEL: IC50 (nM)
Note: unit nM is implicit; provide only the numeric part.

Query: Missing value: IC50, Hepatocyte growth factor receptor (Homo sapiens, UniProt P08581), entry "CCn1cc(-c2ccnc3[nH]ccc23)c(-c2ccc(NC(=O)Nc3ccccc3)cc2)n1" . Fill in?
Reply: 316
